Below, each of the molecules is paired with its reported inhibition in vivo at 3 mg/kg value.
# System: Type III Allergic Reaction (Reversed Passive Arthus Reaction)
# protocol details: Type III allergic reaction (reversed passive Arthus reaction) in rats, oral (Experiment 1)
# Type: in vivo, Rat (Jcl:SD)
# test conditions: 1 h, Rat, 3 mg/kg P.O., one hour before egg albumin, blue spot area vs. control, * P < 0.05, ** P < 0.01, read-out: Inhibition rate (%)
API: value field is a number in %; no unit string.

Here is how some molecules turned out for inhibition in vivo at 3 mg/kg.
CCCCn1c(=O)c2c(NC)n(C(=O)OC)nc2n(CCCC)c1=O    30
CCCCn1c(=O)c2c(NC)n(C)nc2n(CCCC)c1=O    31
CCCn1c(=O)c2c(N(C)C)nn(C)c2n(CCC)c1=O    53
CCCCn1c(=O)c2c(NC)n(C(=O)OC)nc2n(CCC)c1=O    49
CCn1c(=O)c2c(N)n(C(=O)OC)nc2n(CC)c1=O    35

[ask] Specify reported inhibition in vivo at 3 mg/kg for the molecule shown: CCCn1c(=O)c2c(NC(C)=O)[nH]nc2n(CCC)c1=O
[reply] 55

[ask] Specify reported inhibition in vivo at 3 mg/kg for the molecule shown: CCCCn1c(=O)n(CCC)c(=O)c2c(NC)n(C(=O)OC)nc21
[reply] 43

[ask] Specify reported inhibition in vivo at 3 mg/kg for the molecule shown: CCCn1c(=O)c2c(N)n(C(=O)OC)nc2n(CCC)c1=O
[reply] 50

[ask] Specify reported inhibition in vivo at 3 mg/kg for the molecule shown: CCCn1c(=O)c2c(N(C)C)n(C)nc2n(CCC)c1=O
[reply] 56
